HEK-Blue, IL-33, % inhibition at 100 nM for assorted binders
TARGET OR TEST SYSTEM: T1, human IL1RAP (hu-IL1RAP) on human cells (human, UniProt Q9NPH3 21-570)
T1 sequence: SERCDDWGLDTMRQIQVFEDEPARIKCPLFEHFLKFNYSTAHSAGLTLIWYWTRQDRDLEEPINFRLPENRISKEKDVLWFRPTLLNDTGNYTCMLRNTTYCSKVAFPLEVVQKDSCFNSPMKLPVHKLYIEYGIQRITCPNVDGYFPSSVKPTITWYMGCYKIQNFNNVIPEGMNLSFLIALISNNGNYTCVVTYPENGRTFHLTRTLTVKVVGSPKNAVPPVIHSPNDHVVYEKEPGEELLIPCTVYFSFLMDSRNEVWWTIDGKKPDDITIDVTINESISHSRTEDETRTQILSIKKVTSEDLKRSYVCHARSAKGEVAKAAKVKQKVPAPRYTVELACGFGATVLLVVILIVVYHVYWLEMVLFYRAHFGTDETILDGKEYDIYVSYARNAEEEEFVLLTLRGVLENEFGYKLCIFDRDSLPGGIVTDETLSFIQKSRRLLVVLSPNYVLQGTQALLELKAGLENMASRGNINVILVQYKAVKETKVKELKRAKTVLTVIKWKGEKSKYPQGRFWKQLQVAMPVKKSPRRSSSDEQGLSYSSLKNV
PROCEDURE TEXT: cell-based or functional assay
Unit % implied. Number only.

BINDER	EXPERIMENTAL READOUT	MEASURED VALUE
10A11 (purified mAb from hybridoma 10A11) (antibody, V domains shown, Mouse hybridoma mAb) VH: EVQLQQSGAELVKPGASVRLSCTSSGFNIKDYFMHWVKQRTEQGLEWVGRIDPEDGETQYAPNFQDKATITVDTSSNTVYLQLSSLTSEDTAVYYCFRPLYYGNSPWFAYWGQGTLVTVSP VL: DIQMTQTTSSLSASLGDRVTISCRASQDISNYLNWYQQKPDGTVKLLIYYTSTLHSGVPSRFSGSGSGTDYSLTISNLEPEDIATYYCHQYSKFPPTFGSGTKLEIK	HEK-Blue, IL-33, % inhibition at 100 nM	56

What does the data say about its HEK-Blue, IL-33, % inhibition at 100 nM? Entry: 13D8 (purified mAb from hybridoma 13D8) (antibody, V domains shown, Mouse hybridoma mAb) VH: EVQLVESGGGLVKPGGSLKLSCTASGFTFSNYAMSWVRQTPEKRLEWVATISDGGNYTYYPDNVKGRFTISRDIAKNNLYLQMSHLKSEDTAMYYCARDRWPYFFDFWGQGTTLTVSS VL: DIQMTQSPASLSVSVGETVTITCRASDNIYSNLAWYQEKQGKSPQLLVYGATNLADGVPSRFSGSGSGTQYSLKINSLQSEDFGSYYCQHFWTTPRSFGGGTKLELK
69

What does the data say about its HEK-Blue, IL-33, % inhibition at 100 nM? Entry: 8H1 (purified mAb from hybridoma 8H1) (antibody, V domains shown, Mouse hybridoma mAb) VH: QVQLQQSGPELVKSGASVRISCKASGYAFSGSWMNWVKQRPGKGLEWIGRIYPGDGNTNYNGKFKDKATLTADKSSSTAFMQLSSLTSEDSAVYFCARDYYLFYFDYWGQGTTLTVSS VL: NIVMTQTPKFLPVAAEDRVIITCKASQDVSNEVAWYQQKPGQSPKLLMYYASNRYTGVPDRFTGSGSGTDFTFTISSVQVEDLAVYFCQQHYSSPLTFGAGTKLELK
27

What does the data say about its HEK-Blue, IL-33, % inhibition at 100 nM? Entry: 11C5(Hy) (purified mAb from the 11C5 hybridoma) (antibody, V domains shown, Mouse hybridoma mAb; also called 11C5(Hy) mAb; mAb 11C5(Hy)) VH: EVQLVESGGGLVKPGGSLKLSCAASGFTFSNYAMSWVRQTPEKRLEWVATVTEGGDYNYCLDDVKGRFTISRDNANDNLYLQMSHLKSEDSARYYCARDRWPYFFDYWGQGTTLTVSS VL: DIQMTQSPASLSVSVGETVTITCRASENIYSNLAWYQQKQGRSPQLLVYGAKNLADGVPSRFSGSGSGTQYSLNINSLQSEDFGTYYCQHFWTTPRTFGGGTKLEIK
93
